Values were extracted from ChEMBL document CHEMBL6177929.

pIC50 reference
Tested on: MCF7
Assay: Antiproliferative activity against human MCF7 cells assessed as reduction in cell viability incubated for 48 hrs by MTT assay
Type: functional, cell-based
Conditions: MCF7, 48 h
// field semantics: pIC50 = negative decimal log of concentration (mol/L)

// known answers, use as guide
c1ccc2c(-n3cnnc3)nc(-n3cnnc3)nc2c1 = 4.72
COc1cc2c(-n3cnnc3)nc(-n3cnnc3)nc2c(OC)c1OC = 4.64
c1ccc2c(-n3ccnc3)nc(-n3ccnc3)nc2c1 = 4.94

*Q* Identify measured pIC50 associated with `c1ccc(CN2CCN(c3nc(N4CCN(Cc5ccccc5)CC4)c4ccccc4n3)CC2)cc1`
*A* 4.66

*Q* Give a short answer stating reported pIC50 for `COc1cc2c(N3CCN(C)CC3)nc(N3CCN(C)CC3)nc2c(OC)c1OC` .
*A* 4.62

*Q* State its pIC50: `COc1cc2c(-n3nnc4ccccc43)nc(-n3nnc4ccccc43)nc2c(OC)c1OC`
*A* 5.46

*Q* Note down pIC50 recorded for COc1cc2c(c(OC)c1OC)-c1ccc(OC)c(=O)cc1[C@@H](NC(C)=O)CC2 [COLCHICINE]
*A* 5.35

*Q* Look up pIC50 of `c1ccc2c(N3CCOCC3)nc(N3CCOCC3)nc2c1` and report it.
*A* 4.84

*Q* Answer with the recorded pIC50 for the compound listed here: `COc1cc2c(N3CCOCC3)nc(N3CCOCC3)nc2c(OC)c1OC`
*A* 4.73

----------
System: HCT-116
Experiment: Antiproliferative activity against human HCT-116 cells assessed as reduction in cell viability incubated for 48 hrs by MTT assay
Format: functional, cell-based
Details: HCT-116, 48 h
metric_name: pIC50
The quantity pIC50 is defined as the negative base-10 logarithm of the molar concentration.

c1ccc2c(-n3ccnc3)nc(-n3ccnc3)nc2c1 = 5.03

*Q* Assign pIC50 to the following record: `COc1cc2c(-n3ccnc3)nc(-n3ccnc3)nc2c(OC)c1OC`
*A* 5.58

*Q* Tell me its pIC50 given `c1ccc(N2CCN(c3nc(N4CCN(c5ccccc5)CC4)c4ccccc4n3)CC2)cc1` as the entry.
*A* 5.04

*Q* Give reported pIC50 value for `COc1cc2c(-n3cnnc3)nc(-n3cnnc3)nc2c(OC)c1OC`
*A* 4.86

*Q* Identify the reported pIC50 for the following entry. `c1ccc2c(-n3cnnc3)nc(-n3cnnc3)nc2c1`
*A* 4.76

*Q* Using known records, supply pIC50 for `COc1cc2c(-n3nnc4ccccc43)nc(-n3nnc4ccccc43)nc2c(OC)c1OC`
*A* 5.14

----------
System: MCF7
Experiment: Antiproliferative activity against human MCF7 cells assessed as reduction in cell viability incubated for 48 hrs by MTT assay
Format: functional, cell-based
Details: MCF7, 48 h
metric_name: pIC50
The quantity pIC50 is defined as the negative base-10 logarithm of the molar concentration.

c1ccc(N2CCN(c3nc(N4CCN(c5ccccc5)CC4)c4ccccc4n3)CC2)cc1 = 4.89
c1ccc2c(-n3nnc4ccccc43)nc(-n3nnc4ccccc43)nc2c1 = 4.82

// moving on: another record for pIC50
*Q* Let me know recorded pIC50 for `COc1cc2c(-n3ccnc3)nc(-n3ccnc3)nc2c(OC)c1OC` , thanks.
*A* 5.37

----------
Tested on: HCT-116
Assay: Antiproliferative activity against human HCT-116 cells assessed as reduction in cell viability incubated for 48 hrs by MTT assay
Format: functional, cell-based
Settings: HCT-116, 48 h
Measured pIC50 by item
Lab note: report pIC50 as minus log10 of the concentration in molar units, number only.

Sample answers from the record:
COc1cc2c(N3CCN(C)CC3)nc(N3CCN(C)CC3)nc2c(OC)c1OC = 4.67
CN1CCN(c2nc(N3CCN(C)CC3)c3ccccc3n2)CC1 = 4.69

# evaluate next
*Q* For the molecule `COc1cc2c(c(OC)c1OC)-c1ccc(OC)c(=O)cc1[C@@H](NC(C)=O)CC2` , give its measured pIC50 value.
*A* 5.78
